target: UniProt P80324
property-name: Ki
Quick note: number first, unit second.

// query GET Ki | system: UniProt P80324 | item: Nc1ccc(C(=O)O)cc1
// result 300 µM
